SYSTEM: T1, SpoIIAA-P (phosphorylated SpoIIAA) (B. subtilis) (UniProt P10727)
T1 sequence (chain, phosphoserine at 58 (32P in the labelled tracer)): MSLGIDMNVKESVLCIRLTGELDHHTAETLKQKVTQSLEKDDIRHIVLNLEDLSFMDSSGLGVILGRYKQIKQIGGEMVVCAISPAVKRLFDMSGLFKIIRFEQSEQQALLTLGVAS
RECORDED_METRIC: kcat of SpoIIAA-P dephosphorylation (multiple turnover, 10 mM MgCl2, Michaelis-Menten fit) (min^–1)
Your answer is read as min^–1, so omit the unit and give the number.

Below, each entry is followed by its recorded kcat of SpoIIAA-P dephosphorylation (multiple turnover, 10 mM MgCl2, Michaelis-Menten fit) result.
[[record]]
binder = "SpoIIE^I723S (phosphatase domain, SpoIIE^590-827) (domain or fragment) SYRVSTGAAHAAKGGGLVSGDSYSMMELGARKYAAAISDGMGNGARAHFESNETIKLLEKILESGIDEKIAIKTINSILSLRTTDEIYSTLDLSIIDLQDASCKFLKVGSTPSFIKRGDQVMKVQASNLPIGISNEFDVEVVSEQLKAGDLLIMMSDGIFEGPKHVENHDLWMKRKMKGLKTNDPQEIADLLMEEVIRTRSGQIEDDMTVVVVRIDHNTPKWASIPVPAIFQNKQEIS"
unit_abbreviation = "min^–1"
val = 0.036

[[record]]
binder = "SpoIIE^P752R (phosphatase domain, SpoIIE^590-827) (domain or fragment) SYRVSTGAAHAAKGGGLVSGDSYSMMELGARKYAAAISDGMGNGARAHFESNETIKLLEKILESGIDEKIAIKTINSILSLRTTDEIYSTLDLSIIDLQDASCKFLKVGSTPSFIKRGDQVMKVQASNLPIGIINEFDVEVVSEQLKAGDLLIMMSDGIFEGRKHVENHDLWMKRKMKGLKTNDPQEIADLLMEEVIRTRSGQIEDDMTVVVVRIDHNTPKWASIPVPAIFQNKQEIS"
unit_abbreviation = "min^–1"
val = 0.15

[[record]]
binder = "SpoIIE^E675S (phosphatase domain, SpoIIE^590-827) (domain or fragment) SYRVSTGAAHAAKGGGLVSGDSYSMMELGARKYAAAISDGMGNGARAHFESNETIKLLEKILESGIDEKIAIKTINSILSLRTTDSIYSTLDLSIIDLQDASCKFLKVGSTPSFIKRGDQVMKVQASNLPIGIINEFDVEVVSEQLKAGDLLIMMSDGIFEGPKHVENHDLWMKRKMKGLKTNDPQEIADLLMEEVIRTRSGQIEDDMTVVVVRIDHNTPKWASIPVPAIFQNKQEIS"
unit_abbreviation = "min^–1"
val = 0.02


Next:
Note down kcat of SpoIIAA-P dephosphorylation (multiple turnover, 10 mM MgCl2, Michaelis-Menten fit) recorded for SpoIIE phosphatase domain (SpoIIE^590-827) (domain or fragment) SYRVSTGAAHAAKGGGLVSGDSYSMMELGARKYAAAISDGMGNGARAHFESNETIKLLEKILESGIDEKIAIKTINSILSLRTTDEIYSTLDLSIIDLQDASCKFLKVGSTPSFIKRGDQVMKVQASNLPIGIINEFDVEVVSEQLKAGDLLIMMSDGIFEGPKHVENHDLWMKRKMKGLKTNDPQEIADLLMEEVIRTRSGQIEDDMTVVVVRIDHNTPKWASIPVPAIFQNKQEIS
0.39
